test system: KB-3-1; assay: Cell survival assay (SRB), KB-3-1; assay type: cell-based, human; conditions: Homo sapiens, KB 3-1, 72 h
metric_name: IC50 (nM)
I only need the number, in nM, no unit after it.

Lookup: // IC50 lookup, key: CN[C@H](C(=O)N[C@H](C(=O)N(C)[C@H](/C=C(\C)C(=O)O)C(C)C)C(C)(C)C)C(C)(C)c1ccccc1 [Example 129]
Found: 0.96

----------
tested on: KB-HTI-4.0; assay: Cell survival assay, KB-3-1 line made resistant to Example 129 (KB-HTI-4.0); type: cell-based, human; details: Homo sapiens, KB 3-1, read-out: KB-HTI-4.0 IC50, nM
metric_name: IC50 (nM)
Quick note: give the figure in nM, leave out the unit.

Lookup: Fill in: IC50 of CN[C@H](C(=O)N[C@H](C(=O)N(C)[C@H](/C=C(\C)C(=O)O)C(C)C)C(C)(C)C)C(C)(C)c1ccccc1 is ___
Found: 6.5

Lookup: I'd like to know its IC50. The compound in question is CO[C@]12C=C[C@](C)(O1)[C@@H](OC(=O)/C=C/c1cn(C)cn1)C[C@H]1C(C)=CC[C@H](C(C)C)[C@H]1/C=C\2CO[C@@H]1OC[C@@H](O)[C@@H](O)[C@@H]1OC(C)=O
Found: 21.3

----------
test system: KB-3-1; test: Cell survival assay (SRB), KB-3-1; type: cell-based, human; settings: Homo sapiens, KB 3-1, KB-3-1 cells (paclitaxel-sensitive parent); read-out: In vitro IC50 (nM) KB-3-1
metric_name: IC50 (nM)
Please state the figure in nM; there is no need to write the unit.

Lookup: Any idea what IC50 was measured for CCOC(=O)/C(C)=C/[C@H](C(C)C)N(C)C(=O)[C@@H](NC(=O)[C@H](NC)C(C)(C)c1cccc(C)c1)C(C)(C)C [Example 7b] ?
Found: 263

Lookup: What value of IC50 has been recorded for this entry: CCOC(=O)/C(C)=C/[C@H](C(C)C)N(C)C(=O)[C@@H](NC(=O)[C@@H](NC)C(C)(C)c1cccc(C)c1)C(C)(C)C [Example 7a]
Found: 21.9

Lookup: Can you look up the measured IC50 of CN[C@H](C(=O)N[C@@H](C(=O)N(C)[C@H](/C=C(\C)C(=O)O)C(C)C)C(C)C)C(C)(C)c1ccccc1 [Example 131] for me?
Found: 6

Lookup: Consider the compound CN[C@H](C(=O)N[C@H](C(=O)N(C)[C@H](/C=C(\C)C(=O)O)C(C)C)C(C)(C)F)C(C)(C)c1ccccc1 [Example 149] and give its measured IC50.
Found: 1.6

Lookup: May I ask what IC50 has been recorded for CN[C@H](C(=O)N[C@H](C(=O)N(C)[C@H](/C=C(\C)C(=O)O)C(C)C)C(C)(C)C)C(C)(C)c1ccc(OC)cc1OC [Example 59] ?
Found: 2.4

Lookup: So what does the record say about IC50 for CNC(C(=O)NC(C(=O)N(C)C(C=C(C)C(=O)O)CC(C)C)C(C)(C)C)C(C)(C)c1ccccc1.O=C(O)C(F)(F)F (stereo not drawn) [Example 104, Trifluoroacetic Acid] ?
Found: 27.7

----------
system: KB-3-1; test: Cell survival assay (SRB), KB-3-1; assay type: cell-based, human; conditions: Homo sapiens, KB 3-1, 72 h, read-out: IC50 + 5.0 uM MDR-1 inhibitor
metric_name: IC50 (nM)
Write down the numeric answer in nM and omit the unit.

Lookup: Requested field: IC50. Item: CN[C@H](C(=O)N[C@H](C(=O)N(C)[C@H](/C=C(\C)C(=O)O)C(C)C)C(C)(C)C)C(C)(C)c1ccccc1
Found: 0.9
